# credit: patent US7312330B2

For each of the compounds below, state its Tmax.
Assay: Pharmacokinetic profile after intravenous and oral administration
Format: in vivo
Conditions: male, Sprague-Dawley, plasma; rat; IV 1 mg/kg, oral 5 mg/kg
Numeric answer only, unit h assumed.

Give the measured Tmax for `CS(=O)(=O)c1cccnc1N1CCc2c(ncnc2Nc2ccc(C(F)(F)F)cc2)C1`
1.67

Give the measured Tmax for `N#Cc1nc2c(c(Nc3ccc(C(F)(F)F)cc3)n1)CCN(c1ncccc1Cl)C2`
3.33

Give the measured Tmax for `FC(F)(F)c1ccc(Nc2ncnc3c2CCN(c2ncccc2Cl)C3)cc1`
1.01

* * *

For each of the compounds below, state its IC50.
Molecular target: HsVR1 (Homo sapiens, UniProt Q8NER1)
Construct: expressed in transfected cells; host or cells: Xenopus oocytes injected with HsVR1 RNA
Sequence (Q8NER1 whole entry): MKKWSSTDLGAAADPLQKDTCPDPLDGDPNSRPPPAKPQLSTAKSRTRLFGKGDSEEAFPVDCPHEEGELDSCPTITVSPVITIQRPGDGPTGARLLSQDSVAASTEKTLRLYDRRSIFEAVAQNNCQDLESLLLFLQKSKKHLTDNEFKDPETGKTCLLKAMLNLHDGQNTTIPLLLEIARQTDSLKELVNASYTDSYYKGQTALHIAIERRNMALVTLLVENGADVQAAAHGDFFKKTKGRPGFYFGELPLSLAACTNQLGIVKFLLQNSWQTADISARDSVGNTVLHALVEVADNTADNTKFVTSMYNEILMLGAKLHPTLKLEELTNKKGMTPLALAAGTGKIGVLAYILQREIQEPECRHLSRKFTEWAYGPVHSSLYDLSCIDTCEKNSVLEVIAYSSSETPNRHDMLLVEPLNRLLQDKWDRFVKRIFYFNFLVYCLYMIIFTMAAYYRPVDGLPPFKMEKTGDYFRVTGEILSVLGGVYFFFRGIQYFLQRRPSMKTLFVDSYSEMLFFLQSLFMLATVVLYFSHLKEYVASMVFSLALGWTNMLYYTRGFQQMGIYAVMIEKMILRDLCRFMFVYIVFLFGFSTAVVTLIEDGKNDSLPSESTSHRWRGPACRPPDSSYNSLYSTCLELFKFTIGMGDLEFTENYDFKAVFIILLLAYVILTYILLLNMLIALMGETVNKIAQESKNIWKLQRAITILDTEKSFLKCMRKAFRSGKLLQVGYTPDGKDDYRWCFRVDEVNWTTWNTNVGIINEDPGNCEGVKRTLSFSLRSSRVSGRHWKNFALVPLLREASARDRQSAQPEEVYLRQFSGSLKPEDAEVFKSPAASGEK
Experiment: Two-electrode voltage clamp recording of capsaicin induced VR1 current in Xenopus oocytes
Format: cell-based
Details: 250 nM capsaicin induced current; Xenopus oocytes injected with HsVR1 RNA; read-out: EPHYS IC50

Give the measured IC50 for CCS(=O)(=O)c1cccnc1N1CCc2c(ncnc2Nc2ccc(C(F)(F)F)cc2)C1 [Example 10]
101 to 500 nM

Give the measured IC50 for CS(=O)(=O)c1cccnc1N1CCc2c(ncnc2Nc2ccc(S(=O)(=O)C(F)(F)F)cc2)C1 [Example 23]
101 to 500 nM

Give the measured IC50 for FC(F)(F)c1ccc(Nc2nc(NCCN3CCOCC3)nc3c2CCN(c2ncccc2Cl)C3)cc1 [Example 33]
501 to 1000 nM

Give the measured IC50 for CCOc1nc2c(c(Nc3ccc(C(F)(F)F)cc3)n1)CCN(c1ncccc1S(C)(=O)=O)C2 [Example 64]
101 to 500 nM

Give the measured IC50 for FC(F)(F)c1ccc(Nc2nccc3c2CCN(c2ncccc2Cl)C3)cc1 [Example 26]
> 1000 nM

* * *

Target: HsVR1 (Homo sapiens)
Experiment: Two-electrode voltage clamp recording of capsaicin induced VR1 current in Xenopus oocytes
Settings: 250 nM capsaicin induced current; Xenopus oocytes injected with HsVR1 RNA; read-out: EPHYS IC50
measuredMetric: IC50

Give the measured IC50 for `CCOc1nc2c(c(Nc3ccc(C(F)(F)F)cc3)n1)CCN(c1ncccc1Cl)C2`
< 100 nM

Give the measured IC50 for `CS(=O)(=O)c1cccnc1N1CCc2c(ncnc2Nc2ccc(C(F)(F)F)cc2)C1`
101 to 500 nM

Give the measured IC50 for COCc1nc2c(c(Nc3ccc(C(C)(C)C)cc3)n1)CCN(c1ncccc1Cl)C2.Cl [Example 5, hydrochloride]
< 100 nM

Give the measured IC50 for `O=S(=O)(c1ccc(Nc2ncnc3c2CCN(c2ncccc2Cl)C3)cc1)C(F)(F)F`
< 100 nM

Give the measured IC50 for `FC(F)(F)c1ccc(Nc2ncnc3c2CCN(c2ncccc2Cl)C3)cn1`
101 to 500 nM

* * *

Target: hVR1 (Homo sapiens, UniProt Q8NER1)
Sequence (Q8NER1 whole entry): as above
Assay: Calcium imaging assay (Fura2) of VR1 antagonists, proton stimulation
Details: calcium ion influx induced by proton stimulation; HEK 293 cells expressing hVR1
pIC50: −log10 of the molar value.
measuredMetric: pIC50

Give the measured pIC50 for `FC(F)(F)c1ccc(Nc2ncnc3c2CCN(c2ncccc2C(F)(F)F)C3)cc1`
6.30 to 7.00

Give the measured pIC50 for COCc1nc2c(c(Nc3ccc(C(C)(C)C)cc3)n1)CCN(c1ncccc1Cl)C2.Cl [Example 5, hydrochloride]
> 7.00

Give the measured pIC50 for `CSc1nc2c(c(Nc3ccc(C(F)(F)F)cc3)n1)CCN(c1ncccc1S(C)(=O)=O)C2`
6.30 to 7.00

Give the measured pIC50 for `Fc1cccnc1N1CCc2c(ncnc2Nc2ccc(C(F)(F)F)cc2)C1`
6.30 to 7.00

Give the measured pIC50 for `O=C(O)COc1nc2c(c(Nc3ccc(C(F)(F)F)cc3)n1)CCN(c1ncccc1Cl)C2`
< 6.00

Give the measured pIC50 for `COc1cccc(Nc2ncnc3c2CCN(c2ccc(C(F)(F)F)cn2)C3)c1`
< 6.00

Give the measured pIC50 for `CCS(=O)(=O)c1cccnc1N1CCc2c(ncnc2Nc2ccc(C(F)(F)F)cc2)C1`
6.30 to 7.00

Give the measured pIC50 for `Clc1cccnc1N1CCc2c(ncnc2Nc2ccccc2)C1`
< 6.00

Give the measured pIC50 for COCc1nc2c(c(Nc3ccc(C(C)(C)C)cc3)n1)CCN(c1ncccc1C(F)(F)F)C2.Cl [Example 6, hydrochloride]
> 7.00

Give the measured pIC50 for `FC(F)(F)c1ccc(Nc2ncnc3c2CCN(c2ncccc2Cl)C3)cc1`
6.30 to 7.00

Give the measured pIC50 for `CS(=O)(=O)c1cccnc1N1CCc2c(ncnc2Nc2ccc(C(F)(F)F)cc2)C1`
6.30 to 7.00

Give the measured pIC50 for `CC(C)S(=O)(=O)c1cccnc1N1CCc2c(ncnc2Nc2ccc(C(F)(F)F)cc2)C1`
< 6.00

Give the measured pIC50 for `CN1CCC(C)(C)c2ccc(Nc3ncnc4c3CCN(c3ncccc3Cl)C4)cc21`
> 7.00

Give the measured pIC50 for `CC1(C)C(=O)NC(=O)c2cc(Nc3ncnc4c3CCN(c3ncccc3Cl)C4)ccc21`
< 6.00

Give the measured pIC50 for `Oc1nc2c(c(Nc3ccc(C(F)(F)F)cc3)n1)CCN(c1ncccc1Cl)C2`
< 6.00

Give the measured pIC50 for `CC(C)(C)c1ccc(Nc2ncnc3c2CCN(c2ncccc2S(C)(=O)=O)C3)cc1`
6.30 to 7.00

Give the measured pIC50 for `CC(=O)N1CC(C)(C)c2ccc(Nc3ncnc4c3CCN(c3ncccc3Cl)C4)cc21`
6.00 to 6.30

Give the measured pIC50 for CC(C)(C)c1ccc(Nc2ncnc3c2CCN(c2ncccc2C(F)(F)F)C3)cc1.Cl [Example 4, hydrochloride]
> 7.00

Give the measured pIC50 for CC(C)(C)c1ccc(Nc2ncnc3c2CCN(c2ncccc2Cl)C3)cc1.Cl [Example 3, hydrochloride]
> 7.00

Give the measured pIC50 for `CC1(C)CNCc2cc(Nc3ncnc4c3CCN(c3ncccc3Cl)C4)ccc21`
< 6.00
